Where these numbers come from: patent US8138189B2

- TARGET_OF_ASSAY: full length human recombinant glucocorticoid receptor (Homo sapiens, UniProt P04150)
- Construct: partially purified full length human recombinant glucocorticoid receptor; purchased Panvera/Invitrogen PV4302
- TEST_DESCRIPTION: Glucocorticoid Receptor Binding Assay (fluorescence polarization competitor assay, Fluormone GS Far Red tracer)
PARAMETER: log10 Ki (log10 of the value in nM)

[
  {
    "COMPOUND": "C[C@H](c1ccc(-c2nc(C(=O)O)no2)cc1Cl)[C@@](O)(c1ccnc(Cl)c1)C(F)(F)F (stereo in doubt)",
    "VALUE_OBSERVED": 2.16
  },
  {
    "COMPOUND": "CCOC(=O)c1noc(-c2ccc([C@@H](C)[C@@](O)(c3ccnc(Cl)c3)C(F)(F)F)c(Cl)c2)n1 (relative stereo)",
    "VALUE_OBSERVED": 1.67
  },
  {
    "COMPOUND": "CC(c1ccc(N(c2ccc(C(=O)O)cn2)c2ccc(C(=O)O)cn2)cc1Cl)C(O)(c1ccnc(Cl)c1)C(F)(F)F (stereo not drawn)",
    "VALUE_OBSERVED": 1.88
  },
  {
    "COMPOUND": "CC(c1ccc(Oc2ccc(C(=O)O)cc2)cc1Cl)C(O)(c1ccnc(Cl)c1)C(F)(F)F (stereo not drawn)",
    "VALUE_OBSERVED": 0.32
  },
  {
    "COMPOUND": "Cc1cc([C@](O)([C@H](C)c2ccc(Oc3ncc(C(=O)O)cc3Cl)cc2Cl)C(F)(F)F)cnc1C#N (relative stereo)",
    "VALUE_OBSERVED": 0.23
  },
  {
    "COMPOUND": "CCOC(=O)c1ccc(COc2ccc(C(C)C(O)(c3ccncc3)C(F)(F)F)c(Cl)c2)cc1 (stereo not drawn)",
    "VALUE_OBSERVED": 1.67
  }
]

* * *

- TARGET_OF_ASSAY: full length human recombinant glucocorticoid receptor (Homo sapiens)
- Construct: partially purified full length human recombinant glucocorticoid receptor; purchased Panvera/Invitrogen PV4302
- Sequence (P04150 1-777): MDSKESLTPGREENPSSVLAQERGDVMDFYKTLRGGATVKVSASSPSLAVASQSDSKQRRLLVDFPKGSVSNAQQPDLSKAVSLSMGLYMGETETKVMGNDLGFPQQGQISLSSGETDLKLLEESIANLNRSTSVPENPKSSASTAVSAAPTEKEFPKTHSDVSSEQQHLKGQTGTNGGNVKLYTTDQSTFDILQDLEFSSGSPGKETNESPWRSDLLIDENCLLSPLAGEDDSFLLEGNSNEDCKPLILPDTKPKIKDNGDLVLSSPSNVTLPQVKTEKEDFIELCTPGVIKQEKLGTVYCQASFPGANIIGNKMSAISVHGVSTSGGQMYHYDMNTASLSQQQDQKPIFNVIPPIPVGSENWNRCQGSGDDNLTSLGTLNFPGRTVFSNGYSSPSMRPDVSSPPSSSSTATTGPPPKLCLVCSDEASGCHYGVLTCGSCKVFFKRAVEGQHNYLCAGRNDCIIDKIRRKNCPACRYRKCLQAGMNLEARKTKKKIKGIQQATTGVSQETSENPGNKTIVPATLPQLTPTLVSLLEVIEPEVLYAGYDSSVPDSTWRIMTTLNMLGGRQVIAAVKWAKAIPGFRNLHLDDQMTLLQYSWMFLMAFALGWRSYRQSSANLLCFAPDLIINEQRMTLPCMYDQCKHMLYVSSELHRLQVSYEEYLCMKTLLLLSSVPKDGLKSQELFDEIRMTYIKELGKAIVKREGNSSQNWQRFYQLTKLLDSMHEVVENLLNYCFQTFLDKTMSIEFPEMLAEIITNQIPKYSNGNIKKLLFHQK
- TEST_DESCRIPTION: Glucocorticoid Receptor Binding Assay (fluorescence polarization competitor assay, Fluormone GS Far Red tracer)
- Method: Glucocorticoid Receptor Binding Assay The ability of the substances to bind to the glucocorticoid receptor was determined with the help of a commercial Glucocorticoid Receptor Competitor Assay far red kit provided by Panvera/Invitrogen (PV4302). This kit is used as provided by the supplier. […]
The following compounds are listed with their measured Ki values.
PARAMETER: Ki (µM)

[
  {
    "COMPOUND": "COC(=O)c1ccc(-c2ccc([C@H](C)[C@](O)(c3ccc(=O)n(C)c3)C(F)(F)F)c(Cl)c2)cc1OC (stereo in doubt) [Example 173]",
    "TARGET_OF_ASSAY": "full length human recombinant glucocorticoid receptor (Homo sapiens)",
    "PARAMETER": "Ki",
    "DISPLAY_UNIT": "µM",
    "VALUE_OBSERVED": 0.0073
  },
  {
    "COMPOUND": "CC(c1ccc(Oc2cccc(CC(=O)O)c2)cc1Cl)C(O)(c1ccnc(Cl)c1)C(F)(F)F (stereo not drawn) [Example 87]",
    "TARGET_OF_ASSAY": "full length human recombinant glucocorticoid receptor (Homo sapiens)",
    "PARAMETER": "Ki",
    "DISPLAY_UNIT": "µM",
    "VALUE_OBSERVED": 0.0151
  },
  {
    "COMPOUND": "COC(=O)c1cccc(NC(=O)c2ccc([C@@H](C)[C@@](O)(c3ccnc(Cl)c3)C(F)(F)F)c(Cl)c2)c1 (relative stereo) [Example 40]",
    "TARGET_OF_ASSAY": "full length human recombinant glucocorticoid receptor (Homo sapiens)",
    "PARAMETER": "Ki",
    "DISPLAY_UNIT": "µM",
    "VALUE_OBSERVED": 0.121
  },
  {
    "COMPOUND": "C[C@@H](c1ccc(Oc2ccc(C(=O)O)c(Cl)c2)cc1Cl)[C@](O)(c1cc(Cl)c(=O)n(C)c1)C(F)(F)F (stereo in doubt) [Example 222]",
    "TARGET_OF_ASSAY": "full length human recombinant glucocorticoid receptor (Homo sapiens)",
    "PARAMETER": "Ki",
    "DISPLAY_UNIT": "µM",
    "VALUE_OBSERVED": 0.0006
  },
  {
    "COMPOUND": "C[C@H](c1ccc(C(=O)NCc2ccc(CC(=O)O)cc2)cc1Cl)[C@@](O)(c1ccnc(Cl)c1)C(F)(F)F (stereo in doubt) [Example 43]",
    "TARGET_OF_ASSAY": "full length human recombinant glucocorticoid receptor (Homo sapiens)",
    "PARAMETER": "Ki",
    "DISPLAY_UNIT": "µM",
    "VALUE_OBSERVED": 0.156
  },
  {
    "COMPOUND": "COC(=O)c1ccc(Oc2ccc([C@@H](C)[C@@](O)(c3ccc(=O)n(C)c3)C(F)(F)F)c(Cl)c2Cl)cc1 (relative stereo) [Example 197]",
    "TARGET_OF_ASSAY": "full length human recombinant glucocorticoid receptor (Homo sapiens)",
    "PARAMETER": "Ki",
    "DISPLAY_UNIT": "µM",
    "VALUE_OBSERVED": 0.0018
  }
]
